TESTED ON: B*5401 (Homo sapiens, UniProt P01889, A329T/C349S/D138N/D201E/E176V/E187T/E204Q/E69G/I76V/K202T/L119W/R155S/R180L/S121T/S35A/S48A/V127L/V306I/V36M/Y140L)
ASSAY PROTOCOL: biochemical
// reported pIC50 for each item listed
Just so you know, pIC50 here is -log10 of the concentration in molar units; reply with that number alone.

In the examples that follow, each entry is paired with its recorded pIC50.
{"MOLECULE": "CC[C@H](C)[C@H](NC(=O)[C@@H]1CCCN1C(=O)[C@H](C)NC(=O)[C@H](C)NC(=O)[C@@H]1CCCN1C(=O)[C@@H](NC(=O)[C@@H]1CCCN1C(=O)[C@H](C)NC(=O)[C@H](C)NC(=O)[C@@H]1CCCN1C(=O)[C@@H](N)Cc1ccccc1)[C@@H](C)O)C(=O)O", "pIC50": 7.82}
{"MOLECULE": "CC[C@H](C)[C@H](NC(=O)[C@H](CO)NC(=O)[C@H](CO)NC(=O)[C@H](CO)NC(=O)[C@H](CC(C)C)NC(=O)[C@@H]1CCCN1C(=O)[C@H](Cc1c[nH]c2ccccc12)NC(=O)[C@H](CO)NC(=O)[C@@H]1CCCN1C(=O)[C@@H](N)Cc1ccccc1)C(=O)O", "pIC50": 8.62}
{"MOLECULE": "CC[C@H](C)[C@H](NC(=O)[C@@H]1CCCN1C(=O)[C@@H]1CCCN1C(=O)[C@H](C)NC(=O)[C@H](C)NC(=O)[C@H](CCC(=O)O)NC(=O)[C@@H]1CCCN1C(=O)[C@H](CCSC)NC(=O)[C@H](CCCNC(=N)N)NC(=O)[C@@H]1CCCN1C(=O)[C@@H](N)Cc1ccccc1)C(=O)O", "pIC50": 8.54}
{"MOLECULE": "CC[C@H](C)[C@H](NC(=O)[C@@H]1CCCN1C(=O)[C@H](Cc1c[nH]c2ccccc12)NC(=O)[C@H](CO)NC(=O)[C@@H]1CCCN1C(=O)[C@H](C)NC(=O)[C@@H]1CCCN1C(=O)[C@H](C)NC(=O)[C@@H]1CCCN1C(=O)[C@@H](N)Cc1ccccc1)C(=O)O", "pIC50": 8.92}
{"MOLECULE": "CC[C@H](C)[C@H](NC(=O)[C@H](C)NC(=O)[C@@H]1CCCN1C(=O)[C@H](C)NC(=O)[C@@H]1CCCN1C(=O)[C@H](C)NC(=O)[C@@H](NC(=O)[C@@H]1CCCN1C(=O)[C@@H]1CCCN1C(=O)[C@@H](N)Cc1ccccc1)C(C)C)C(=O)O", "pIC50": 7.20}
{"MOLECULE": "CC[C@H](C)[C@H](NC(=O)[C@H](CO)NC(=O)[C@@H]1CCCN1C(=O)[C@H](C)NC(=O)[C@@H]1CCCN1C(=O)[C@H](C)NC(=O)[C@@H]1CCCN1C(=O)[C@@H](N)Cc1ccccc1)C(=O)O", "pIC50": 8.17}
{"MOLECULE": "CC[C@H](C)[C@H](NC(=O)[C@@H]1CCCN1C(=O)[C@H](C)NC(=O)[C@H](C)NC(=O)[C@@H]1CCCN1C(=O)[C@@H](NC(=O)[C@@H]1CCCN1C(=O)[C@@H](N)Cc1ccccc1)[C@@H](C)O)C(=O)O", "pIC50": 8.11}

# input for lookup
Query: Which pIC50 is listed for CC[C@H](C)[C@H](NC(=O)[C@@H]1CCCN1C(=O)[C@@H](NC(=O)[C@@H]1CCCN1C(=O)[C@H](C)NC(=O)[C@H](C)NC(=O)[C@@H]1CCCN1C(=O)[C@@H](N)Cc1ccccc1)[C@@H](C)O)C(=O)O ?
Reply: 8.51
